experiment description: CREB reporter modulators under forskolin, primary screen, cell-based, PC12, CRE-LacZ reporter, forskolin-stimulated (AID 1146);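 also: PC12 cells with 6xCRE LacZ reporter stimulated by forskolin 10 µM; beta-galactosidase reporter signal reflecting CREB driven transcription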
condition description: luminescence, 4.5 h, higher = more signal, called active from +8 up or from −8 down
z-score below -0.3 gives criterion not met; z-score at or above it gives criterion met.

- compound: "CC(C)OC(=O)CC(=O)CC(O)c1cccc(C#N)c1 (stereo not drawn)"
  qualitative label: "criterion met"
- compound: "COc1ccc([Si](C)(C)[C@@H]2[C@@H](CCn3cc([C@H](O)c4ccccc4)nn3)O[C@]3(C(=O)N(Cc4ccc(N5CCOC5=O)cc4)c4ccccc43)[C@H]2C)cc1"
  qualitative label: "criterion met"
- compound: "CCOc1cc(C(O)C2C=CC3C(=O)N(C)C(=O)C3N2N2CCCCC2)ccc1O (stereo not drawn)"
  qualitative label: "criterion not met"
- compound: "CC=CC(O)C1C=CC2C(=O)N(c3ccccc3)C(=O)C2N1Nc1ccccc1 (stereo not drawn)"
  qualitative label: "criterion not met"
- compound: "CCOC(=O)C1=CC[C@@H](c2ccccc2)N(S(=O)(=O)c2ccc(C)cc2)C1"
  qualitative label: "criterion met"
- compound: "COc1ccc(C(O)C2C=CC3C(=O)N(c4ccccc4)C(=O)C3N2Nc2ccccc2)cc1OCc1ccccc1 (stereo not drawn)"
  qualitative label: "criterion met"
- compound: "C=CCN1C(=O)[C@@]2(O[C@@H](CCO)[C@H]([Si](C)(C)c3ccc(OC)cc3)[C@H]2C)c2cc(N3C(=O)c4ccccc4Oc4ccccc43)ccc21"
  qualitative label: "criterion not met"
- compound: "CC(C)CNC(=O)[C@@]1(c2ccc([N+](=O)[O-])cc2)CC(=O)N(C2CCCCC2)[C@@H]1c1ccc(CO)cc1I"
  qualitative label: "criterion met"

====

target of assay: Dickkopf-related protein 1 (Homo sapiens) (UniProt O94907)
Sequence (O94907 whole entry, looked up): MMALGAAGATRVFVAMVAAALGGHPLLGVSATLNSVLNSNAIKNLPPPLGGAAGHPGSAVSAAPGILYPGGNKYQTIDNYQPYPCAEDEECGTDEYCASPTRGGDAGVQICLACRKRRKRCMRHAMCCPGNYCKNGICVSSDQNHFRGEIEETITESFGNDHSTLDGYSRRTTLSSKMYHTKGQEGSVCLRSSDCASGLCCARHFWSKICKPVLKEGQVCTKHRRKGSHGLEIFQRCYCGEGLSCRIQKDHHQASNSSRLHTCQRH
experiment description: DKK1 binders on small-molecule microarrays, primary screen, biochemical, small-molecule microarray, 635 nm fluorescence scan (AID 1106);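 also: score merges emission near 667 nm with signal to noise over three replicate slides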
condition description: DKK1 binding, higher = more signal
Reported composite z-score values for the following compounds.

- query smiles: "O=C1c2ccccc2[C@](Cc2ccccc2I)(C(=O)NCCN2CCOCC2)[C@H](c2ccc(CO)cc2)N1Cc1ccccc1"
  target of assay: "Dickkopf-related protein 1 (Homo sapiens) (UniProt O94907)"
  composite z-score: 0.352
- query smiles: "COc1cc2c(cc1OC)CN(C(=O)[C@H]1[C@@H]3C(=O)O[C@@H](c4ccccc4)[C@@H](c4ccccc4)N3[C@@H](c3ccc(OCCO)cc3)[C@]13C(=O)Nc1ccc(C#CCCO)cc13)CC2"
  target of assay: "Dickkopf-related protein 1 (Homo sapiens) (UniProt O94907)"
  composite z-score: 0.167
- query smiles: "CCOC(=O)C1=C[C@@H](c2ccccc2)N(S(=O)(=O)c2ccc(C)cc2)[C@H]1c1cccc(Cl)c1"
  target of assay: "Dickkopf-related protein 1 (Homo sapiens) (UniProt O94907)"
  composite z-score: -0.0943

====

experiment description: CREB reporter modulators without forskolin, primary screen, cell-based, PC12, CRE-LacZ reporter, unstimulated (AID 1145)
condition description: no forskolin, luminescence, 4.5 h, higher = more signal, called active from +8 up or from −8 down
property name: z-score

- compound: "COC(=O)c1c(CC[C@@H](CO)NC(=O)N[C@H](Cn2cc(-c3ccccc3C)nn2)C(C)C)oc(C(C)=O)c1C(=O)OC"
  property name: "z-score"
  assay result: 1.5
- compound: "COc1ccc(NN2C(C(O)c3ccco3)C=CC3C(=O)N(C4CCCCC4)C(=O)C32)cc1 (stereo unspecified)"
  property name: "z-score"
  assay result: 0.323
- compound: "O=C1O[C@@H](c2ccccc2)[C@@H](c2ccccc2)N2[C@@H](c3ccccc3OCCO)[C@]3(C(=O)Nc4ccc(C#CCCO)cc43)[C@@H](C(=O)Nc3nc4ccccc4s3)[C@H]12"
  property name: "z-score"
  assay result: -0.671
- compound: "CC=CC(O)C1C=CC2C(=O)N(c3ccccc3)C(=O)C2N1Nc1ccc([N+](=O)[O-])cc1 (stereo unspecified)"
  property name: "z-score"
  assay result: -0.415
- compound: "COCCCNC(=O)[C@@]1(Sc2ccc(C)cc2)CC(=O)N(Cc2cc(C(F)(F)F)cc(C(F)(F)F)c2)[C@@H]1c1ccc(CO)cc1"
  property name: "z-score"
  assay result: 0.506
- compound: "COC(=O)[C@H](Cc1ccccc1)N1CC(/C=C/C2CC2)=C[C@@H]1[C@@H](O)Cc1ccccc1"
  property name: "z-score"
  assay result: 3.31
- compound: "NC(=O)N1C(=O)C2C(C1=O)C1C=C(c3ccc(CO)cc3)C2C(C2CC2)N1Cc1sc2ccccc2c1Cl (stereo unspecified)"
  property name: "z-score"
  assay result: 4.42
- compound: "C=C(/C=C/CNS(=O)(=O)c1ccc(C)cc1)[C@H](O)[C@H]1CCCN1S(=O)(=O)c1ccccc1[N+](=O)[O-]"
  property name: "z-score"
  assay result: 6.84
- compound: "CC(C)C(O)C1C=CC2C(=O)N(C)C(=O)C2N1N(c1ccccc1)c1ccccc1 (stereo unspecified)"
  property name: "z-score"
  assay result: 0.0535
- compound: "CCCCN1CC=CC23O[C@@H]4C=CCOC(=O)[C@@H]4[C@H]2C(=O)N(CCCO)[C@@H]3C1=O (stereo partly specified)"
  property name: "z-score"
  assay result: -0.757
- compound: "C=C(CCCC)C(=O)CC[C@@H](OC(=O)c1cccnc1)c1ccccc1OCCO"
  property name: "z-score"
  assay result: 4.16
- compound: "COC(=O)[C@@]1(Cc2ccc(OC)cc2)[C@H]2c3cc(C(=O)N(C)C)n(Cc4ccccc4)c3C[C@H]2CN1C(=O)c1ccccc1"
  property name: "z-score"
  assay result: -0.764
- compound: "CN(C)CCCCNC(=O)[C@H]1C[C@H]2C(=O)N[C@@H](CCCCN(C)C)C(=O)N2[C@H]1c1cccc(OCCO)c1"
  property name: "z-score"
  assay result: -1.07
- compound: "O=C1OC[C@@H](c2ccccc2)N2CC(/C=C/c3ccccc3)=CC12 (stereo partly specified)"
  property name: "z-score"
  assay result: 0.945
- compound: "CC1CC/C=C\\[C@H]2OC34C=CCN(c5ccc6ccccc6c5)C(=O)[C@H]3N(C(CO)C(C)C)C(=O)[C@@H]4C2C(=O)O1 (stereo partly specified)"
  property name: "z-score"
  assay result: -0.0939
- compound: "CN1C(=O)C2C(C1=O)C1C=C(c3ccc(CO)cc3)C2C(c2cccs2)N1Cc1cccc(OC(F)(F)F)c1 (stereo unspecified)"
  property name: "z-score"
  assay result: -0.336

====

Recorded z-score, one value per entry.
experiment description: cell viability in Huh7 cells, primary screen, cytotoxicity control for HCV replication inhibitor project, CellTiter-Glo luminescence, basal, 48 h (AID 1143);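 also: Huh7 hepatoma cells carrying a hepatitis C replication reporter with no stimulus; test concentration not given here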
condition description: Huh7 HCV replicon, higher = more signal, called active from +8 up or from −8 down

- query smiles: "C=CCNC(=O)[C@@H]1[C@H]2C(=O)O[C@H](c3ccccc3)[C@H](c3ccccc3)N2[C@H](c2ccc(OCCO)cc2)[C@@]12C(=O)N(C(=O)OCCOC)c1ccc(C#CC3=CCCCC3)cc12"
  z-score: -2.81
- query smiles: "CC(C)CN1C(=O)[C@@]2(c3ccc([N+](=O)[O-])cc3)CC(=O)N(CC34CC5CC(CC(C5)C3)C4)[C@@H]2c2ccc(CO)cc21"
  z-score: -4.16
- query smiles: "COc1ccc([Si](C)(C)[C@H]2[C@H](CCO)O[C@@]3(C(=O)N(Cc4cccc(N5CCCCC5=O)c4)c4ccccc43)[C@@H]2C)cc1"
  z-score: -7.87
- query smiles: "[N-]=[N+]=NCc1ccccc1[C@H]1OC(c2ccc(OCCCO)cc2)=N[C@@]1(CCS(=O)(=O)c1ccccc1)C(N)=O"
  z-score: -0.0602
- query smiles: "COCCOC(=O)N1C(=O)[C@@]2(c3cc(C#CCC(C(=O)OC)C(=O)OC)ccc31)[C@H](c1ccc(OCCO)cc1)N1[C@H](c3ccccc3)[C@H](c3ccccc3)OC(=O)[C@H]1[C@@H]2C(=O)N1CCN(c2ncccn2)CC1"
  z-score: -4.96
- query smiles: "C=C(C(=O)CC[C@H](OC(=O)c1cccnc1)c1cccc(OCCO)c1)C(C)C"
  z-score: -1.04

====

Tested on: Neuregulin-1 EGF-like domain
experiment description: binders of neuregulin-1 EGF-like domain, primary screen, biochemical, small-molecule microarray, 635 nm fluorescence (AID 1081);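 also: binding of the protein to compounds printed on small-molecule microarray slides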
condition description: small-molecule microarray binding, higher = more signal
Each entry gets not satisfied if its composite z-score stays under 1, and satisfied if its composite z-score is 1 or above.

- molecule: "COc1cc2c(cc1OC)CN(C(=O)[C@H]1[C@@H]3C(=O)O[C@@H](c4ccccc4)[C@@H](c4ccccc4)N3[C@@H](c3ccc(OCCO)cc3)[C@]13C(=O)Nc1ccc(C#CC4(O)CCCCCC4)cc13)CC2"
  qualitative label: "satisfied"
- molecule: "CCOc1cc(C(O)C2C=CC3C(=O)N(C4CCCCC4)C(=O)C3N2Nc2ccc(OC)cc2)ccc1O (stereo unspecified)"
  qualitative label: "satisfied"
- molecule: "C=C(/C(=C/C[C@@H](OC(=O)c1ccncc1)c1ccc(OCCO)cc1)c1cc(C(=O)OC)ccc1OC)C(C)C"
  qualitative label: "satisfied"
- molecule: "[N-]=[N+]=NCc1ccccc1[C@H]1OC(c2ccc(OCCCO)cc2)=N[C@@]1(CCS(=O)(=O)c1ccccc1)C(N)=O"
  qualitative label: "satisfied"
- molecule: "C=CCNC(=O)[C@H]1[C@@H]2C(=O)O[C@@H](c3ccccc3)[C@@H](c3ccccc3)N2[C@@H](c2ccccc2OCCO)[C@]12C(=O)N(C(=O)OCCOC)c1ccc(C#CC3=CCCCC3)cc12"
  qualitative label: "satisfied"
- molecule: "COCCCNC(=O)[C@@]1(Sc2ccc(C)cc2)CC(=O)N(Cc2cc(C(F)(F)F)cc(C(F)(F)F)c2)[C@@H]1c1ccc(CO)cc1"
  qualitative label: "not satisfied"

The measured values listed here are drawn from PubChem BioAssay.
